# credit: patent US8883798B2

Entries annotated with measured Cell viability in % of the controls
test system: peritoneal cells of mice; test: Cell viability of mouse peritoneal cells (WST-1 kit); format: cell-based; conditions: Table 3A, substance 50 μmol·l^−1, 24 h
TEST READOUT: Cell viability in % of the controls

line_notation=CC(C)c1c(Cl)nc(N=CN(C)C)nc1Cl test_value="134.83 ± 16.51 % of the controls"
line_notation=CC(C)c1c(Cl)nc(NC=O)nc1Cl test_value="60.02 ± 0.29 % of the controls"
line_notation=CCCc1c(Cl)nc(NC=O)nc1Cl test_value="98.59 ± 6.59 % of the controls"

---

Each entry below carries its recorded Cell viabilities in % of the controls.
tested on: peritoneal cells of mice; experiment: Cell viability of mouse peritoneal cells (WST-1 kit); type: cell-based; conditions: Table 3B, substance 50 μmol·l^−1, 24 h
TEST READOUT: Cell viabilities in % of the controls

compound="CCCCc1c(-c2ccncc2)nc(N)nc1-c1ccco1 [Substance 98]" test_readout="Cell viabilities in % of the controls" test_value="69.84 ± 3.62; n = 8 % of the controls"
compound="CCCCc1c(Cl)nc(NC(C)=O)nc1Cl [Substance 147]" test_readout="Cell viabilities in % of the controls" test_value="113.28 ± 8.99; n = 8 % of the controls"
compound="CCCCc1c(-c2ccsc2)nc(N)nc1-c1cccc2ccccc12 [Substance 140]" test_readout="Cell viabilities in % of the controls" test_value="94.34 ± 2.62; n = 4 % of the controls"
compound="CCCCc1c(-c2ccccn2)nc(N)nc1-c1cc2ccccc2o1 [Substance 118]" test_readout="Cell viabilities in % of the controls" test_value="91.38 ± 4.41; n = 8 % of the controls"
compound="CCCCc1c(Cl)nc(N)nc1-c1ccco1 [Substance 101]" test_readout="Cell viabilities in % of the controls" test_value="68.95 ± 3.02; n = 8 % of the controls"
